Every entry's value here was drawn from ChEMBL document CHEMBL4689842.

# System: HEK-293T
# assay name: Multiplex assay against HEK293T
# Assay type: toxicity, cell-based
# condition: human, 48 h, 10 µM, compound concentration 10 uM, replicate 1
metric name: Population Membrane Permeable-Phenotype (%)

>  <molecule>
CC(C)OC(=O)N1CCC(Oc2ncnc3c2cnn3-c2ccc(S(C)(=O)=O)cc2F)CC1

>  <subject of test>
HEK-293T

>  <test value>
3%

$$$$
>  <molecule>
CC1=C(C(=O)Nc2cc3cn[nH]c3cc2F)C(c2ccc(C(F)(F)F)cc2)CC(=O)N1 (stereo not given)

>  <subject of test>
HEK-293T

>  <test value>
7%

$$$$
>  <molecule>
COc1ccc(-c2ccc3ncc4c(c3c2)n(-c2ccc(N3CCNCC3)c(C(F)(F)F)c2)c(=O)n4C)cn1.O=C(O)/C=C\C(=O)O

>  <subject of test>
HEK-293T

>  <test value>
0%

$$$$
>  <molecule>
C[C@]12CC[C@@H]3c4ccc(O)cc4CC[C@H]3[C@@H]1CC[C@@H]2O

>  <subject of test>
HEK-293T

>  <test value>
1%

$$$$
>  <molecule>
CCc1ccc(OCc2ccccc2C(=O)Nc2ccc3nc(C)cc(N)c3c2)cc1.Cl

>  <subject of test>
HEK-293T

>  <test value>
0%

$$$$
